biological target: ABHD12 (lysophosphatidylserine lipase) (Homo sapiens); experiment: Inhibition of azido-fluorophosphonate probe binding to human ABHD12 expressed in HEK293T cells at 20 uM incubated for 1 hr followed by azido-fluorophosphonate addition and measured after 1 hr by fluorescent Western blotting analysis relative to control; assay type: toxicity, cell-based; settings: HEK293T cells that express human ABHD12, probe azido-fluorophosphonate
Sequence (Q8N2K0 whole entry): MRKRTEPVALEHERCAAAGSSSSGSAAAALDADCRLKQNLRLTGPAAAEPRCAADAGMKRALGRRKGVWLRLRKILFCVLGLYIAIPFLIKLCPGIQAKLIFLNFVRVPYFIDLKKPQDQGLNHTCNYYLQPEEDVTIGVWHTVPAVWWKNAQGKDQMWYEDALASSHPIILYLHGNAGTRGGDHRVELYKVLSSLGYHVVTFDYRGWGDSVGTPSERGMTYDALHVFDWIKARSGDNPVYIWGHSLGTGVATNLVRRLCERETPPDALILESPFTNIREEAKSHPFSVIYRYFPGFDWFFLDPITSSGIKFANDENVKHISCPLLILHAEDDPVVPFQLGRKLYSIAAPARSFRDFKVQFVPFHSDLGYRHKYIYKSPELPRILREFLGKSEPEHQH
measurementKind: inhibition at 2 h, 20 µM (%)

[
  {
    "smilesEntry": "COC(=O)[C@]1(C)CCC[C@]2(C)c3cc(-c4csc([C@H](C)O)n4)c(C(C)C)cc3CC[C@@H]12",
    "assayTarget": "ABHD12 (lysophosphatidylserine lipase) (Homo sapiens)",
    "measValue": 54
  }
]

The reported numbers originate from ChEMBL document CHEMBL5370629.
